measured-on: UniProtKB P25090
Sequence (P25090 whole entry): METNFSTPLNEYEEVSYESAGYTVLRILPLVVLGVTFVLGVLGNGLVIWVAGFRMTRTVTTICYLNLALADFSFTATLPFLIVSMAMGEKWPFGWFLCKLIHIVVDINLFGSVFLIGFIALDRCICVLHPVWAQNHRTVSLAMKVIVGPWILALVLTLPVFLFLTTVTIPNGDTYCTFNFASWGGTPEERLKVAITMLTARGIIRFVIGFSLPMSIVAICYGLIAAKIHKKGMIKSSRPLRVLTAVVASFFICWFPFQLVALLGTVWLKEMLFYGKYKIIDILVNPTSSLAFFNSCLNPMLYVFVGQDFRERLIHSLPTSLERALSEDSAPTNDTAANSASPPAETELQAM
experimental-protocol: FPR2 cyclic adenosine monophosphate (cAMP) assay
measurement-setup: CHO cells overexpressing human FPR2; forskolin 5 µM; inhibition of cAMP production; read-out: hFPR2 cAMP2 EC50
Reported EC50 values for the following compounds.
Just the number in nM, nothing appended.

# compound, unit-info, assay-result
data = [
    ("COCC(CN)n1cccc(N2C[C@@H](c3c(F)cc(OC)cc3F)[C@H](NC(=O)c3ccc(OC(F)F)cc3)C2=O)c1=O (stereo partly shown) [Example 44]", "nM", 1),
    ("COc1cc(F)c([C@@H]2CN(c3nccc(N4C[C@@H](C)N(C)[C@@H](C)C4)c3C(F)(F)F)C(=O)[C@H]2NC(=O)c2ccc(OC(F)F)cc2)c(F)c1", "nM", 2.9),
]

Hello, please tell me recorded EC50 for this one: COc1cc(F)c([C@@H]2CN(c3nc(N4CCCC4=O)ccc3F)C(=O)[C@H]2NC(=O)c2ccc(OC(F)F)cc2)c(F)c1
8.2

Give EC50 for COc1cc(F)c([C@@H]2CN(c3cccn(CCO)c3=O)C(=O)[C@H]2NC(=O)c2ccc(OC(F)(F)F)cc2)c(F)c1
4.5

Identify measured EC50 associated with COCCn1cccc(N2C[C@@H](c3c(F)cc(OC)cc3F)[C@H](NC(=O)c3ccc(OC)cc3)C2=O)c1=O
32
